TEST PROTOCOL: NCI Yeast Anticancer Drug Screen. Data for the bub3 strain (AID 167)
CONDITIONS USED: S. cerevisiae bub3 mutant strain, at 50.0 µM (retest, dose inferred, filed as 5.0)
Compounds without any hit were thinned out: in the full panel of roughly 79,000, 15% have a hit. Active and inactive are the calls of the source. Cut-off read from the data, not from the text of the source: active = growth inhibition above about 70%; inactive = the rest.
Outcomes: yes (active), no (inactive)

[[record]]
record_smiles = "Cc1c(-c2ccccc2)ccnc1/C=N/NC(=S)Nc1ccccc1"
assigned_category = "no"

[[record]]
record_smiles = "O=C(c1ccc(Cl)c([N+](=O)[O-])c1)c1ccc(Cl)c([N+](=O)[O-])c1"
assigned_category = "yes"

[[record]]
record_smiles = "ClC1CC[N-]CC1.ClC1CC[N-]CC1.[Cl][Pt+2]([Cl])([Cl])[Cl]"
assigned_category = "yes"

[[record]]
record_smiles = "CC1=C(c2ccccc2)C(=O)OC1=O"
assigned_category = "no"

